- STUDY TARGET: purified human Factor XIa (Homo sapiens (Human))
- TEST DESCRIPTION: Factor XIa enzyme inhibition assay (chromogenic substrate S-2366)
- COND: read-out: Factor XIa Ki; measured at 25° C.
Structures can show the parent of a compound that is named as a salt.
PARAMETER MEASURED: Ki

# query: Ki of entry CN(C)c1ccc(-c2cccc3c2CCN(C(=O)c2cn(-c4cccc(Cl)c4F)nn2)C3C(=O)Nc2ccc(C(=O)O)cc2)cn1 (stereo not drawn)
< 5 nM

Check O=C(O)c1ccc(NC(=O)C2c3cccc(-c4cncc(F)c4)c3CCN2C(=O)c2cn(-c3cccc(Cl)c3F)nn2)cc1 (stereo not drawn) [Example 35, TFA salt] too.
< 5 nM

Check COC1CN(c2cccc3c2CCN(C(=O)c2cn(-c4cccc(Cl)c4F)nn2)C3C(=O)Nc2ccc(C(=O)O)cc2)C1 (stereo not drawn) [Example 83, TFA salt] too.
< 5 nM

====

- STUDY TARGET: purified human Factor XIa (Homo sapiens (Human), UniProt P03951)
- Sequence (P03951 388-625): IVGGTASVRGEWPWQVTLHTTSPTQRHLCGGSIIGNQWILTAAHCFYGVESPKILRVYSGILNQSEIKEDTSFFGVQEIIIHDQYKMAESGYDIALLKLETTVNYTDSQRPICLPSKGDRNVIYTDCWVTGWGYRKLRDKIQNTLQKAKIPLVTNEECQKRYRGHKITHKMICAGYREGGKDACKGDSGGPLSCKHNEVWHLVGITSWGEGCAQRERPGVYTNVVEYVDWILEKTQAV
- Sequence (P03951 19-387 partner): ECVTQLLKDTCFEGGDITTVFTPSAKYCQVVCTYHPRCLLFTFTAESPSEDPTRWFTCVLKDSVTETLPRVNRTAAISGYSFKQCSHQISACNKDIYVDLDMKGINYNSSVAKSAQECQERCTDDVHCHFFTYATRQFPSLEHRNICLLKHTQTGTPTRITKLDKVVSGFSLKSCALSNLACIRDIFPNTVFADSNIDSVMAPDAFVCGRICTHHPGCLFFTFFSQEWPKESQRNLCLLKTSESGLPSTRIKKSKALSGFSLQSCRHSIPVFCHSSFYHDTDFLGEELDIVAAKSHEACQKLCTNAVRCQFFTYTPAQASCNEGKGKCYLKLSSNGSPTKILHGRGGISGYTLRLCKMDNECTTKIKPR
- TEST DESCRIPTION: Factor XIa enzyme inhibition assay (chromogenic substrate S-2366)
- COND: read-out: Factor XIa Ki; measured at 25° C.; TFA salt
Where a name gives a salt, the structure may show the parent alone.
PARAMETER MEASURED: Ki (nM)
Answer with a number only, understood to be in nM.

# query: Ki of entry COC1CCN(c2cccc3c2CCN(C(=O)C2(C)CC(c4cccc(Cl)c4F)=NO2)C3C(=O)Nc2ccc(C(=O)O)cc2)CC1 (stereo not drawn) [Example 267, TFA salt]
103

Check COC1CCN(c2cccc3c2CCN(C(=O)C2CCN(c4cccc(Cl)c4)C2)C3C(=O)Nc2ccc(C(=O)O)cc2)CC1 (stereo not drawn) [Example 258, TFA salt] too.
127

Check COC1CCN(c2cccc3c2CCN(C(=O)C2CCN(c4cccc(Cl)c4F)C2)C3C(=O)Nc2ccc(C(=O)O)cc2)CC1 (stereo not drawn) [Example 308, TFA salt] too.
6.03

Check COC1CCN(c2cccc3c2CCN(C(=O)C2CC(c4c(C(F)(F)F)ccc(Cl)c4F)=NO2)C3C(=O)Nc2ccc(C(=O)O)cc2)CC1 (stereo not drawn) [Example 297, TFA salt] too.
46.3

Check CC(C)(O)C1CCN(c2cccc3c2CCN(C(=O)C2CC(c4cccc(Cl)c4F)=NO2)C3C(=O)Nc2ccc(C(=O)O)cc2)CC1 (stereo not drawn) [Example 263, TFA salt] too.
11.5

Check COC1CCN(c2cccc3c2CCN(C(=O)C2CC(c4c(C(F)(F)F)ccc(Cl)c4F)=NO2)C3C(=O)Nc2ccc(C(=O)O)cc2)CC1 (stereo not drawn) [Example 298, TFA salt] too.
64.8

====

So I've got a bunch of compounds here, and I need their Ki values.
- STUDY TARGET: purified human Factor XIa (Homo sapiens (Human), UniProt P03951)
- TEST DESCRIPTION: Factor XIa enzyme inhibition assay (chromogenic substrate S-2366)
- COND: read-out: Factor XIa Ki; measured at 25° C.
Where a name gives a salt, the structure may show the parent alone.
Answer with a number only, understood to be in nM.

# query: Ki of entry C=C(C)c1cccc2c1CCN(C(=O)c1cn(-c3cccc(Cl)c3F)nn1)C2C(=O)Nc1ccc(C(=O)O)cc1 (stereo not drawn)
18.2

Check CCOC(=O)Cc1ccc(NC(=O)C2c3cccc(-c4ccc(C(=O)NC)nc4)c3CCN2C(=O)c2cn(-c3cccc(Cl)c3F)nn2)cc1 (stereo not drawn) [Example 116, TFA salt] too.
13.6

Check COC1CCN(c2cccc3c2CCN(C(=O)c2nnn(-c4cccc(Cl)c4F)c2C)C3C(=O)Nc2ccc(-c3ncc[nH]3)cc2)CC1 (stereo not drawn) [Example 140, TFA salt] too.
39.7

Check Nc1cccc2c1CCN(C(=O)c1cn(-c3cccc(Cl)c3F)nn1)C2C(=O)Nc1ccc(C(=O)O)cc1 (stereo not drawn) [Example 334, TFA salt] too.
10.6

Check COC1CCN(c2cccc3c2CCN(C(=O)c2cccc(-c4cccc(Cl)c4F)n2)C3C(=O)Nc2ccc(C(=O)O)cc2)CC1 (stereo not drawn) [Example 325, TFA salt] too.
2400

====

So I've got a bunch of compounds here, and I need their Ki values.
- STUDY TARGET: purified human Factor XIa (Homo sapiens (Human), UniProt P03951)
- TEST DESCRIPTION: Factor XIa enzyme inhibition assay (chromogenic substrate S-2366)
- COND: read-out: Factor XIa Ki; measured at 25° C.
Counter-ions that a name gives are not always drawn.
Answer with a number only, understood to be in nM.

# query: Ki of entry O=C(O)c1ccc(NC(=O)[C@H]2c3cccc(N4CCC(O)CC4)c3CCN2C(=O)c2cn(-c3cccc(Cl)c3F)nn2)cc1 [Example 87, TFA salt]
43

Check CN1CCN(c2cccc3c2CCN(C(=O)C2CC(c4cccc(Cl)c4)=NO2)C3C(=O)Nc2ccc(C(=O)O)cc2)CC1 (stereo not drawn) [Example 217, TFA salt] too.
15.2

Check COC(=O)c1ccc(NC(=O)[C@H]2c3cccc(N4CCN(C5COC5)CC4)c3CCN2C(=O)[C@H]2CC(c3cccc(Cl)c3F)=NO2)cc1 [Example 233, TFA salt] too.
5.45

Check O=C(O)c1ccc(NC(=O)C2c3cccc(N4CCCCC4)c3CCN2C(=O)c2cn(-c3cccc(Cl)c3F)nn2)cc1 (stereo not drawn) [Example 78, TFA salt] too.
9.16

Check O=C(O)c1ccc(NC(=O)C2c3cccc(F)c3CCN2C(=O)c2cn(-c3cccc(Cl)c3F)nn2)cc1 (stereo not drawn) [Example 195] too.
40.1

Check COC1CCN(c2cccc3c2CCN(C(=O)c2cnn(-c4ccnc(C)c4)c2)C3C(=O)Nc2ccc(C(=O)O)cc2)CC1 (stereo not drawn) [Example 327, TFA salt] too.
816

Check COc1ccc(NC(=O)C2c3cccc(N4CCC(N(C)C)CC4)c3CCN2C(=O)c2cnn(-c3cccc(Cl)c3F)c2)cc1 (stereo not drawn) [Example 97, TFA salt] too.
9.13

Check Cc1nc(-c2ccc(NC(=O)C3c4cccc(N5CCC(N(C)C)CC5)c4CCN3C(=O)c3cn(-c4cccc(Cl)c4F)nn3)cc2)no1 (stereo not drawn) [Example 98, bis-TFA salt] too.
6.69

====

- STUDY TARGET: purified human plasma kallikrein (Homo sapiens (Human), UniProt P03952)
- Sequence (P03952 391-638): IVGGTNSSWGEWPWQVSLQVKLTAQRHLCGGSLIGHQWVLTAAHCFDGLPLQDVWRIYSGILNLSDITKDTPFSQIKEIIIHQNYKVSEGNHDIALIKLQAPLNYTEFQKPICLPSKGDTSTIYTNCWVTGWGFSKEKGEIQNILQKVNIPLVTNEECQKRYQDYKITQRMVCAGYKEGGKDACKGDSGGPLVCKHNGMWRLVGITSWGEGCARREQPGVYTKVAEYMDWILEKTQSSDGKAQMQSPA
- Sequence (P03952 20-390 partner): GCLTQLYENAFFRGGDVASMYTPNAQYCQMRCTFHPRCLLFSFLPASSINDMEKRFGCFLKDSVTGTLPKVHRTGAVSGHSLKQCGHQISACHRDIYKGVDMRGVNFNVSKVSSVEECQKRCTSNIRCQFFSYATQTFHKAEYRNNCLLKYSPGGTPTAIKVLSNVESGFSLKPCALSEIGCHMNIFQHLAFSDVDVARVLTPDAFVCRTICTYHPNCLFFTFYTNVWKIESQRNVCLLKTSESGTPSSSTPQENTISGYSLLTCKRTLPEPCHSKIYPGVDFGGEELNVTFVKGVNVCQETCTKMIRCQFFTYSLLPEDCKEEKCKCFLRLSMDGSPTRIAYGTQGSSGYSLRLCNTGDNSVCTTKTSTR
- TEST DESCRIPTION: Plasma kallikrein enzyme inhibition assay (chromogenic substrate S-2302)
- Format: biochemical
- COND: measured at 37° C. (*)
Structures can show the parent of a compound that is named as a salt.
PARAMETER MEASURED: Ki

# query: Ki of entry COC1CCN(c2cccc3c2CCN(C(=O)c2cn(-c4cccc(Cl)c4F)cn2)[C@H]3C(=O)Nc2ccc(C(=O)O)cc2)CC1 [Example 272, TFA salt]
> 6 µM

Check COC1CCN(c2cccc3c2CCN(C(=O)c2cccc(-c4cccc(Cl)c4F)n2)C3C(=O)Nc2ccc(C(=O)O)cc2)CC1 (stereo not drawn) [Example 325, TFA salt] too.
> 6 µM

Check CC(C)c1nnc2n1CCN(c1cccc3c1CCN(C(=O)[C@@H]1CC(c4cccc(Cl)c4F)=NO1)[C@H]3C(=O)Nc1ccc(C(=O)O)cc1)C2 [Example 339, TFA salt] too.
0.0846 µM

====

- STUDY TARGET: purified human Factor XIa (Homo sapiens (Human), UniProt P03951)
- TEST DESCRIPTION: Factor XIa enzyme inhibition assay (chromogenic substrate S-2366)
- COND: read-out: Factor XIa Ki; measured at 25° C.
pKi: −log10 of the molar value. Where a name gives a salt, the structure may show the parent alone.
PARAMETER MEASURED: pKi

# query: pKi of entry Nc1ncc(-c2cccc3c2CCN(C(=O)c2cn(-c4cccc(Cl)c4F)nn2)C3C(=O)Nc2ccc(C(=O)O)cc2)cn1 (stereo not drawn) [Example 30, TFA salt]
> 8.30

Check O=C(Nc1ccc(-c2ncc[nH]2)cc1)C1c2cccc(-c3cncnc3)c2CCN1C(=O)c1cn(-c2cccc(Cl)c2F)nn1 (stereo not drawn) [Example 126, TFA salt] too.
> 8.30

Check O=C(O)c1ccc(NC(=O)C2c3cccc(C4=CCNCC4)c3CCN2C(=O)c2cn(-c3cccc(Cl)c3F)nn2)cc1 (stereo not drawn) too.
> 8.30

Check NCc1cccc2c1CCN(C(=O)c1cn(-c3cccc(Cl)c3F)nn1)C2C(=O)Nc1ccc(C(=O)O)cc1 (stereo not drawn) [Example 109, TFA salt] too.
7.84

Check CN(C)C1CCN(c2cccc3c2CCN(C(=O)c2cn(-c4cccc(Cl)c4F)nn2)C3C(=O)Nc2ccc(-c3nnn[nH]3)cc2)CC1 (stereo not drawn) [Example 105, bis-TFA salt] too.
> 8.30

Check O=C(Nc1ccc(-c2ncc[nH]2)cc1)[C@@H]1c2cccc(-c3cncnc3)c2CCN1C(=O)c1cn(-c2cccc(Cl)c2F)nn1 [Example 138, TFA salt] too.
> 8.30
